Assay: Distribution coefficient of the compound at pH 7.4 (logD)
Conditions: octanol/water
Each entry below carries its reported logD.

{"columns": ["smiles code", "logD"],
 "data": [
  ["Cn1cc(NC(=O)c2cc(NC(=O)c3cc(NC=O)cn3C)cn2C)cc1C(=O)NCCC(=N)N", -5.87],
  ["CN(C)CCCNC(=O)c1cc(NC(=O)c2cc(NC(=O)c3cc(NC(=O)c4cc(NC(=O)c5cc(NC(=O)c6cc(NC(=O)CCCN(C)C)cn6C)cn5C)cn4C)cn3C)cn2C)cn1C", 0.47],
  ["CN(C)CCCNC(=O)c1cc(NC(=O)c2cc(NC(=O)c3cc(NC=O)cn3C)cn2C)cn1C", 0.07],
  ["CN(C)CCCNC(=O)c1cc(NC(=O)c2cc(NC(=O)c3cc(NC(=O)c4cc(NC(=O)c5cc(NC(=O)CCCN(C)C)cn5C)cn4C)cn3C)cn2C)cn1C", -0.32],
  ["CN(C)CCCNC(=O)c1cc(NC(=O)c2cc(NC(=O)CNC(=O)c3cccc(C(=O)NCC(=O)Nc4cc(C(=O)Nc5cc(C(=O)NCCCN(C)C)n(C)c5)n(C)c4)c3)cn2C)cn1C", -2.74],
  ["CN(C)CCCNC(=O)c1cc(NC(=O)c2cc(NC(=O)/C=C/C(=O)Nc3cc(C(=O)Nc4cc(C(=O)NCCCN(C)C)n(C)c4)n(C)c3)cn2C)cn1C", -1.03]
]}

====

Assay: Partition coefficient of the compound (logP)
Conditions: octanol/water
Decision: logP >= 2 yields Satisfied, all other cases yield Not satisfied.

{"columns": ["smiles code", "answer label"],
 "data": [
  ["Cn1cc(NC(=O)c2cc(NC(=O)c3cc(NC=O)cn3C)cn2C)cc1C(=O)NCCC(=N)N", "Not satisfied"],
  ["CN(C)CCCNC(=O)c1cc(NC(=O)c2cc(NC(=O)CNC(=O)c3cccc(C(=O)NCC(=O)Nc4cc(C(=O)Nc5cc(C(=O)NCCCN(C)C)n(C)c5)n(C)c4)c3)cn2C)cn1C", "Not satisfied"],
  ["CN(C)CCCNC(=O)c1cc(NC(=O)c2cc(NC(=O)c3cc(NC(=O)c4cc(NC(=O)c5cc(NC(=O)c6cc(NC(=O)CCCN(C)C)cn6C)cn5C)cn4C)cn3C)cn2C)cn1C", "Satisfied"],
  ["CN(C)CCCNC(=O)c1cc(NC(=O)c2cc(NC(=O)c3cc(NC(=O)c4cc(NC(=O)c5cc(NC(=O)CCCN(C)C)cn5C)cn4C)cn3C)cn2C)cn1C", "Satisfied"],
  ["CN(C)CCCNC(=O)c1cc(NC(=O)c2cc(NC(=O)/C=C/C(=O)Nc3cc(C(=O)Nc4cc(C(=O)NCCCN(C)C)n(C)c4)n(C)c3)cn2C)cn1C", "Satisfied"],
  ["CN(C)CCCNC(=O)c1cc(NC(=O)c2cc(NC(=O)c3cc(NC=O)cn3C)cn2C)cn1C", "Satisfied"]
]}

====

pKa values by entry
Test: The ionization constant (pKa) for the compound

{"columns": ["compound", "pKa"],
 "data": [
  ["CN(C)CCCNC(=O)c1cc(NC(=O)c2cc(NC(=O)CNC(=O)c3cccc(C(=O)NCC(=O)Nc4cc(C(=O)Nc5cc(C(=O)NCCCN(C)C)n(C)c5)n(C)c4)c3)cn2C)cn1C", 9.5],
  ["CN(C)CCCNC(=O)c1cc(NC(=O)c2cc(NC(=O)c3cc(NC(=O)c4cc(NC(=O)c5cc(NC(=O)c6cc(NC(=O)CCCN(C)C)cn6C)cn5C)cn4C)cn3C)cn2C)cn1C", 9.5],
  ["CN(C)CCCNC(=O)c1cc(NC(=O)c2cc(NC(=O)/C=C/C(=O)Nc3cc(C(=O)Nc4cc(C(=O)NCCCN(C)C)n(C)c4)n(C)c3)cn2C)cn1C", 9.5],
  ["CN(C)CCCNC(=O)c1cc(NC(=O)c2cc(NC(=O)c3cc(NC=O)cn3C)cn2C)cn1C", 9.5],
  ["CN(C)CCCNC(=O)c1cc(NC(=O)c2cc(NC(=O)c3cc(NC(=O)c4cc(NC(=O)c5cc(NC(=O)CCCN(C)C)cn5C)cn4C)cn3C)cn2C)cn1C", 9.5],
  ["Cn1cc(NC(=O)c2cc(NC(=O)c3cc(NC=O)cn3C)cn2C)cc1C(=O)NCCC(=N)N [STALLIMYCIN]", 12.4]
]}

Value source: ChEMBL document CHEMBL1133011
